Each recorded value in this set is attributed to patent US20210045385A1.

Corn plant response rating values for the molecules below.
- Tested on: corn (Zea mays)
- Test description: Test A postemergence, visual plant response rating
- Type: in vivo
- Conditions: Postemergence, 125 g ai/ha; 0 to 100 scale (0 no effect, 100 complete control)
- Source text: […]
Experimental endpoint: Corn plant response rating

1. CCCc1ccccc1/C(=N\OC)c1c(O)c(C)nn(C)c1=O: 0
2. CON=C(c1cc(Cl)ccc1Cl)c1c(O)c(C)nn(C)c1=O: 0
3. CON=C(c1c(O)c(C)nn(C)c1=O)c1csc2ccccc12 (single isomer, unassigned): 0
4. CON=C(c1cccc(C(F)(F)F)c1Cl)c1c(O)c(C)nn(C)c1=O: 0
5. C#CCO/N=C(\c1c(O)c(C)nn(C)c1=O)c1cccc2ccccc12: 20
6. CCO/N=C(\c1c(O)c(C)nn(C)c1=O)c1ccc(F)c2ccccc12: 10
7. CO/N=C(/c1ccsc1C)c1c(O)c(C)nn(C)c1=O: 0
8. CON=C(c1c(O)c(C)nn(C)c1=O)c1cccc2ccc(Cl)cc12: 20
9. CCO/N=C(\c1cccc(Cl)c1)c1c(O)c(C)nn(C)c1=O: 0
10. CON=C(c1cccc(C)c1)c1c(O)c(Cl)nn(C)c1=O: 0
11. CON=C(c1ccccc1C1CC1)c1c(O)c(C)nn(C)c1=O: 30
12. CON=C(c1cc(C)cs1)c1c(O)c(C)nn(C)c1=O (mixture of isomers): 0
13. CON=C(c1cccc(C2CC2)c1)c1c(O)c(C)nn(C)c1=O: 0
14. C#CCON=C(c1c(O)c(C)nn(C)c1=O)c1cc(Br)cc2ccccc12: 30
15. CON=C(c1c(O)c(C)nn(C)c1=O)c1cccc2sccc12: 0
16. Cc1cccc(/C(=N\O)c2c(O)c(C)nn(C)c2=O)c1: 0
17. CO/N=C(\c1ccsc1C)c1c(O)c(C)nn(C)c1=O: 0
18. CCn1nc(C)c(O)c(/C(=N/OC)c2cccc(C)c2)c1=O: 0
19. CON=C(c1c(Cl)ccc(C)c1F)c1c(O)c(C)nn(C)c1=O: 0
20. CON=C(c1c(O)c(C)nn(C)c1=O)c1ccc(OC)c2ccccc12: 0
21. CON=C(c1c(O)c(C)nn(C)c1=O)c1cccc2cc(Br)ccc12: 10
22. CON=C(c1cc(C)ccc1Cl)c1c(O)c(C)nn(C)c1=O: 0
23. CON=C(c1cccc(C)c1F)c1c(O)c(C)nn(C)c1=O: 0
24. CON=C(c1ccc(C)o1)c1c(O)c(C)nn(C)c1=O: 0
25. CCc1cccc(C(=NOC)c2c(O)c(C)nn(C)c2=O)c1: 20
26. CCO/N=C(\c1cccc(C)c1C)c1c(O)c(C)nn(C)c1=O: 0
27. CO/N=C(\c1c(O)c(C)nn(C)c1=O)c1cc(Br)cc2ccccc12: 30
28. CON=C(c1sccc1C)c1c(O)c(C)nn(C)c1=O: 0
29. CCO/N=C(\c1c(O)c(Cl)nn(C)c1=O)c1cccc2ccccc12: 30
30. CO/N=C(/c1c(O)c(Cl)nn(C)c1=O)c1cccc2ccccc12: 0
31. CCC(=O)Oc1c(C)nn(C)c(=O)c1C(=NOC)c1cccc2ccccc12: 0
32. CO/N=C(\c1cccc(C)c1)c1c(O)c(C)nn(C)c1=O: 0
33. CO/N=C(\c1c(O)c(Cl)nn(C)c1=O)c1cccc2ccccc12: 0
34. Cc1nn(C)c(=O)c(/C(=N/OC(C)C)c2ccc(F)c3ccccc23)c1O: 10
35. C#CCn1nc(C)c(O)c(C(=NOC)c2cccc(Cl)c2)c1=O (mixture of isomers): 0
36. C=CCO/N=C(/c1c(O)c(C)nn(C)c1=O)c1ccc(F)c2ccccc12: 0
37. CCO/N=C(\c1c(O)c(C)nn(C)c1=O)c1cccc2ccccc12: 10

---

- Tested on: pigweed (Amaranthus retroflexus)
- Test description: Test A postemergence, visual plant response rating
- Assay type: in vivo
- Conditions: 500 g ai/ha, postemergence; 0 is no effect, 100 is complete control
So basically: Pigweed plant response rating (0 to 100 scale) at 70 or higher? That is 1.0. Lower than 70? That is 0.0.

1. CON=C(c1cc(Cl)ccc1Cl)c1c(O)c(C)nn(C)c1=O [Compound 90]: 1.0
2. CCn1nc(C)c(O)c(C(=NOC)c2cccc(Cl)c2)c1=O (mixture of isomers) [Compound 2]: 0.0
3. CON=C(c1cccc(Cl)c1)c1c(O)c(C)nn(C2CC2)c1=O (mixture of isomers) [Compound 33]: 0.0
4. Cc1nn(C)c(=O)c(C(=NOCC=CCl)c2ccc(F)c3ccccc23)c1O [Compound 107]: 1.0
5. CON=C(c1c(O)c(C)nn(C)c1=O)c1ccc(OC)c2ccccc12 [Compound 55]: 0.0
6. CO/N=C(\c1csc(C)c1)c1c(O)c(C)nn(C)c1=O [Compound 44]: 0.0
7. CON=C(c1c(O)c(C)nn(C)c1=O)c1cccc2ccc(Cl)cc12 [Compound 111]: 1.0
8. CO/N=C(\c1c(O)c(C)nn(C)c1=O)c1cc(Br)cc2ccccc12 [Compound 91]: 1.0

---

Below: a set of entries, each annotated with reported Wheat plant response rating (0 to 100 scale).
- Test system: wheat (Triticum aestivum)
- Test description: Test A postemergence, visual plant response rating
- Type: in vivo
- Conditions: 500 g ai/ha, postemergence; 0 is no effect, 100 is complete control
Experimental endpoint: Wheat plant response rating (0 to 100 scale)

1. CON=C(c1cccc(C#N)c1)c1c(O)c(C)nn(C)c1=O: 10
2. CO/N=C(\c1cccc(Cl)c1)c1c(O)c(C)nn(C)c1=O: 20
3. CO/N=C(\c1ccsc1C)c1c(O)c(C)nn(C)c1=O: 0
4. CON=C(c1cc(C)ccc1Cl)c1c(O)c(C)nn(C)c1=O: 0
5. CO/N=C(\c1c(C)cccc1F)c1c(O)c(C)nn(C)c1=O: 10

---

- Test system: barnyardgrass (Echinochloa crus-galli)
- Test description: Test A preemergence, visual plant response rating
- Type: in vivo
- Conditions: 500 g ai/ha Preemergence; approx. 10 days
If the reported Barnyardgrass plant response rating (0 to 100 scale) equals or exceeds 10, assign fulfilled. If not, assign not fulfilled.

1) CCCc1ccccc1/C(=N\OC)c1c(O)c(C)nn(C)c1=O: fulfilled
2) CON=C(c1ccc(C)o1)c1c(O)c(C)nn(C)c1=O: not fulfilled
3) Cc1cccc(/C(=N\O)c2c(O)c(C)nn(C)c2=O)c1: not fulfilled
4) CO/N=C(\c1c(C)cccc1F)c1c(O)c(C)nn(C)c1=O: not fulfilled
5) CON=C(c1cccc(C(F)(F)F)c1Cl)c1c(O)c(C)nn(C)c1=O [Compound 103]: fulfilled
6) CO/N=C(/c1c(OC(C)=O)c(Cl)nn(C)c1=O)c1cccc2ccccc12: fulfilled
7) C=CCON=C(c1c(O)c(C)nn(C)c1=O)c1cc(Br)cc2ccccc12: fulfilled
8) Cc1ccccc1/C(=N/OC(C)C)c1c(O)c(C)nn(C)c1=O: fulfilled

---

- System: foxtail, giant (giant foxtail, Setaria faberii)
- Test description: Test A preemergence, visual plant response rating
- Format: in vivo
- Conditions: 500 g ai/ha Preemergence; approx. 10 days
Recorded Foxtail, Giant plant response rating (0 to 100 scale) by entry
Experimental endpoint: Foxtail, Giant plant response rating (0 to 100 scale)

1. CO/N=C(/c1cccc(F)c1)c1c(O)c(C)nn(C)c1=O [Compound 32]: 0
2. CON=C(c1c(O)c(C)nn(C)c1=O)c1cccc2sccc12 [Compound 58]: 100
3. CON=C(c1cccc(F)c1)c1c(O)c(C)nn(C)c1=O [Compound 64]: 0
4. C=CCO/N=C(/c1c(O)c(C)nn(C)c1=O)c1ccc(F)c2ccccc12 [Compound 87]: 100
5. CON=C(c1c(O)c(C)nn(C)c1=O)c1cccc2ccc(Cl)cc12 [Compound 111]: 90
6. CO/N=C(\c1cccc(C(F)(F)F)c1)c1c(O)c(C)nn(C)c1=O [Compound 71]: 0
7. CO/N=C(\c1ccsc1C)c1c(O)c(C)nn(C)c1=O [Compound 43]: 0
8. CO/N=C(\c1c(O)c(C)nn(C)c1=O)c1cc(Br)cc2ccccc12 [Compound 91]: 100
9. Cc1nn(C)c(=O)c(/C(=N/OC(C)C)c2ccc(F)c3ccccc23)c1O [Compound 88]: 100
10. CCO/N=C(\c1c(O)c(C)nn(C)c1=O)c1cccc2ccccc12 [Compound 79]: 90
11. CON=C(c1cccc(Cl)c1)c1c(O)c(C)nn(CC2CC2)c1=O (mixture of isomers) [Compound 4]: 50
12. C=CCc1ccccc1C(=NOC)c1c(O)c(C)nn(C)c1=O [Compound 121]: 80
13. CON=C(c1ccc(C)s1)c1c(O)c(C)nn(C)c1=O (mixture of isomers) [Compound 144]: 0
14. CON=C(c1cc(Cl)ccc1Cl)c1c(O)c(C)nn(C)c1=O [Compound 98]: 70
15. CON=C(c1cccc(C(F)(F)F)c1Cl)c1c(O)c(C)nn(C)c1=O [Compound 102]: 30
16. C#CCO/N=C(\c1c(O)c(C)nn(C)c1=O)c1cccc2ccccc12 [Compound 83]: 100
17. CO/N=C(/c1ccccc1C(C)C)c1c(O)c(C)nn(C)c1=O [Compound 93]: 30
18. CON=C(c1cccc(C(F)(F)F)c1)c1c(O)c(C)nn(C)c1=O [Compound 56]: 40
